molecular target: JAK1/TYK2 (Homo sapiens, UniProt P23458+P29597); experiment: Inhibition of JAK1/TYK2 in human PBMC derived T cell assessed as reduction in IFNa2a-induced STAT3 phosphorylation after 30 mins by ELISA
Sequence (P23458 whole entry, one chain of several): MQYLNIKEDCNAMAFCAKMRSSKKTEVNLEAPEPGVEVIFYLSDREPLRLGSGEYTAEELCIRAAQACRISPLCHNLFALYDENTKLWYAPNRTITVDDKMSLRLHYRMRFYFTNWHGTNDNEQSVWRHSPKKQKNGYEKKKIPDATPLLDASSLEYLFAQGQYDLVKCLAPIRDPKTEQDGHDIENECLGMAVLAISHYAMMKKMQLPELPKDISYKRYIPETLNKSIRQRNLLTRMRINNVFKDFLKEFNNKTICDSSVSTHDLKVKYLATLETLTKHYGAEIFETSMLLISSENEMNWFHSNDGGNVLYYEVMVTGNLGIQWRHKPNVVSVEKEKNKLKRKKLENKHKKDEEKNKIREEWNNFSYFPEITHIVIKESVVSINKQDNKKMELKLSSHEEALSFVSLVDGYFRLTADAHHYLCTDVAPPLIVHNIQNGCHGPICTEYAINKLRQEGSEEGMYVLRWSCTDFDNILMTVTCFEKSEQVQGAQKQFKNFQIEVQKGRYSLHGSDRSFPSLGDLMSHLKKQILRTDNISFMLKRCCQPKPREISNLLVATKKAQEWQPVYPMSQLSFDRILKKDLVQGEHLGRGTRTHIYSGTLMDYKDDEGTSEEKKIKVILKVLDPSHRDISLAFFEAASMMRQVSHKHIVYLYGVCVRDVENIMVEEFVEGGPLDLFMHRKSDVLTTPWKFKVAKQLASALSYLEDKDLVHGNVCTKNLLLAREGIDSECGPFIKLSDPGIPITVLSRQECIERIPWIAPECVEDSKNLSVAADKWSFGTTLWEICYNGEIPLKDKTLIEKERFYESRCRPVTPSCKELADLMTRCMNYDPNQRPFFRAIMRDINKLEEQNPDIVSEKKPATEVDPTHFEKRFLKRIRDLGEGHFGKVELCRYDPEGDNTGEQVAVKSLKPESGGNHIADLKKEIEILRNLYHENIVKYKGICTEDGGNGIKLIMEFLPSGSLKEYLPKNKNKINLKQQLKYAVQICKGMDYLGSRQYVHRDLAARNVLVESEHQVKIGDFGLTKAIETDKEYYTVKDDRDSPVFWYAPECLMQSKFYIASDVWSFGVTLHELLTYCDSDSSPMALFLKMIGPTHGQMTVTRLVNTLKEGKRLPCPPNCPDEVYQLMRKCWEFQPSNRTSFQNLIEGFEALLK
READOUT NAME: IC50 (µM)
A number alone suffices; assume µM.

For this compound ( C=CC(=O)Nc1cccc(CNc2cc(Nc3ccccc3)ncc2C(N)=O)c1 ), measured IC50 is 4.9

====

target: Epidermal growth factor receptor (Homo sapiens)
READOUT NAME: IC50

The molecule C=CC(=O)Nc1cccc(CNc2cc(Nc3ccccc3)ncc2C(N)=O)c1 , when measured on Epidermal growth factor receptor (Homo sapiens), yielded IC50 of > 10 µM

====

biological target: Tyrosine-protein kinase JAK2 (Homo sapiens, UniProt O60674); assay: Inhibition of GST-tagged JAK2 (unknown origin) using fluoresceinated peptide as substrate after 3 hrs by caliper assay
Sequence (O60674 whole entry): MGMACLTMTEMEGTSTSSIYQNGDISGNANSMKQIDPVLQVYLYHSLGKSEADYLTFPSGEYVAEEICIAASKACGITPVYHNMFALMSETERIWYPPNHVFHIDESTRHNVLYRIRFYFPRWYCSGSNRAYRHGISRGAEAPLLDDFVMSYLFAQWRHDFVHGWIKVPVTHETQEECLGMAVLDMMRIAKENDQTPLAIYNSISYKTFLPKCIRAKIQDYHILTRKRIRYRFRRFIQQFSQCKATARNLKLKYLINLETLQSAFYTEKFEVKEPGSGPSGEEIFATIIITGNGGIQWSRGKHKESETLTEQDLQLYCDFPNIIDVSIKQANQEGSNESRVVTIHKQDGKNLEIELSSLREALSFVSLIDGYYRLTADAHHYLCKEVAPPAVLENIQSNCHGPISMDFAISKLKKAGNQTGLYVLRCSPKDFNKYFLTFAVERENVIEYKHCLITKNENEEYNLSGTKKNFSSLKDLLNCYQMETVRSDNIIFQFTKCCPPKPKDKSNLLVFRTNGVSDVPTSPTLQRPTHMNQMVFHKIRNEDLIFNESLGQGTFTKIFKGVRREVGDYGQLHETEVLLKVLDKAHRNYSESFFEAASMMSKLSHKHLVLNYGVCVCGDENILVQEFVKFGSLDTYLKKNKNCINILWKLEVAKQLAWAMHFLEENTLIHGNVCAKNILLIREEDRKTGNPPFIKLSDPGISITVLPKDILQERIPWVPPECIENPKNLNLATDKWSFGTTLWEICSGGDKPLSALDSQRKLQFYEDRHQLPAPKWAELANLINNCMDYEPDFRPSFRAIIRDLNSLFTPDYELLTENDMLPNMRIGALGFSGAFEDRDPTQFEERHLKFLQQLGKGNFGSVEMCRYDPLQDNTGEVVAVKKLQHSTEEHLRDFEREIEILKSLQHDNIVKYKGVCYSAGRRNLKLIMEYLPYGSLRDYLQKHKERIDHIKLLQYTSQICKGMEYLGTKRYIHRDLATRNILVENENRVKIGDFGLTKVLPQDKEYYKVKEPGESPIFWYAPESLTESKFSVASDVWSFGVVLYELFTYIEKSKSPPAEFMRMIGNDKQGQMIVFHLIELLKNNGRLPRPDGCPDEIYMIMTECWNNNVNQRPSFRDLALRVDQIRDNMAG
READOUT NAME: IC50 (nM)
A number alone suffices; assume nM.

The compound C=CC(=O)Nc1cccc(CNc2cc(Nc3ccccc3)ncc2C(N)=O)c1 , when measured on Tyrosine-protein kinase JAK2 (Homo sapiens, UniProt O60674), yielded IC50 of 1300

Others:
The compound C=CS(=O)(=O)Nc1cccc(CNc2c(C(N)=O)cnn3cccc23)c1 , when measured on Tyrosine-protein kinase JAK2 (Homo sapiens, UniProt O60674), yielded IC50 of 1270

The compound NC(=O)c1cnn2cccc2c1NCc1cccc(NC(=O)Cn2sc3ccccc3c2=O)c1 , when measured on Tyrosine-protein kinase JAK2 (Homo sapiens, UniProt O60674), yielded IC50 of 745

The compound N#CCC(=O)Nc1cccc(CNc2c(C(N)=O)cnn3cccc23)c1 , when measured on Tyrosine-protein kinase JAK2 (Homo sapiens, UniProt O60674), yielded IC50 of 658

The compound NC(=O)c1cnc(Nc2ccccc2)cc1NCc1ccccc1 , when measured on Tyrosine-protein kinase JAK2 (Homo sapiens, UniProt O60674), yielded IC50 of 203

The compound NC(=O)c1cnn2cc(-c3ccccc3)cc2c1NCc1ccccc1 , when measured on Tyrosine-protein kinase JAK2 (Homo sapiens, UniProt O60674), yielded IC50 of 438

====

biological target: Non-receptor tyrosine-protein kinase TYK2 (Homo sapiens, UniProt P29597); experiment: Inhibition of His-tagged TYK2 (unknown origin) using fluoresceinated peptide as substrate after 3 hrs by caliper assay
Sequence (P29597 whole entry): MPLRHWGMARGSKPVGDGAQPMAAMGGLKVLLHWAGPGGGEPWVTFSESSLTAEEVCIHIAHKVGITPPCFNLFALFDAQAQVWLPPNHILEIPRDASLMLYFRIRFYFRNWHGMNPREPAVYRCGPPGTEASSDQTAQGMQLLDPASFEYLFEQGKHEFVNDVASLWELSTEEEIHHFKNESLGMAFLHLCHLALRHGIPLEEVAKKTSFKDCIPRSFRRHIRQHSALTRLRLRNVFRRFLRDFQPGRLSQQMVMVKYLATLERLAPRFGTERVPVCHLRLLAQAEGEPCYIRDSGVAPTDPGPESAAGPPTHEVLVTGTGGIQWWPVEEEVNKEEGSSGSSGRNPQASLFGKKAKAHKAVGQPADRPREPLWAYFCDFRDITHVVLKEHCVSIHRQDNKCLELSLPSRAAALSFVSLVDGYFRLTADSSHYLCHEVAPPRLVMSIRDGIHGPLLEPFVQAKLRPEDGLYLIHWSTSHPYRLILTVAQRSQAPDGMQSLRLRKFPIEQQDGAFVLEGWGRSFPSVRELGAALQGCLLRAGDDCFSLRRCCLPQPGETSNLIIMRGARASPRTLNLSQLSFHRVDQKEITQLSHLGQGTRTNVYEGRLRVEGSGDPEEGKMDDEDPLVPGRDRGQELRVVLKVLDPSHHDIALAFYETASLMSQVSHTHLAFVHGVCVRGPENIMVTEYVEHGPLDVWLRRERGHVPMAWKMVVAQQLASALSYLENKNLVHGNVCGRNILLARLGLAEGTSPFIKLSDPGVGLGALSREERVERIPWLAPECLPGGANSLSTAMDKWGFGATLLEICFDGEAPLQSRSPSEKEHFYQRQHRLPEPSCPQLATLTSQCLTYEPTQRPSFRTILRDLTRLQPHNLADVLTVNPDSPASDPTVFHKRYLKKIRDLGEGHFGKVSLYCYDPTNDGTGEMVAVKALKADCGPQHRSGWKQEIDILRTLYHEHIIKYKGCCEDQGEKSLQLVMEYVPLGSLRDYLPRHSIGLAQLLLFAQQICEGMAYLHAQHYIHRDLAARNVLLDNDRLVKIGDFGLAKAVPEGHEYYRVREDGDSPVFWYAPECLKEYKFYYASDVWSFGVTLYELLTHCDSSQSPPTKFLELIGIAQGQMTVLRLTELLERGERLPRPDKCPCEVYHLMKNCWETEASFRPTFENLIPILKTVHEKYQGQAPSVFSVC
READOUT NAME: pIC50
Convention used: pIC50 is expressed as -log10 of the molar concentration.

The molecule N#CCC(=O)Nc1cccc(CNc2c(C(N)=O)cnn3cccc23)c1 , when measured on Non-receptor tyrosine-protein kinase TYK2 (Homo sapiens, UniProt P29597), yielded pIC50 of 5.70

Could you now consider this next molecule?
The molecule NC(=O)c1cnn2cc(-c3ccccc3)cc2c1NCc1ccccc1 , when measured on Non-receptor tyrosine-protein kinase TYK2 (Homo sapiens, UniProt P29597), yielded pIC50 of 6.93

====

target: JAK3/JAK1 (Homo sapiens, UniProt P23458+P52333); assay: Inhibition of JAK1/JAK3 in human PBMC derived T cell assessed as reduction in IL2-induced STAT3 phosphorylation after 30 mins by ELISA
Sequence (P52333 whole entry): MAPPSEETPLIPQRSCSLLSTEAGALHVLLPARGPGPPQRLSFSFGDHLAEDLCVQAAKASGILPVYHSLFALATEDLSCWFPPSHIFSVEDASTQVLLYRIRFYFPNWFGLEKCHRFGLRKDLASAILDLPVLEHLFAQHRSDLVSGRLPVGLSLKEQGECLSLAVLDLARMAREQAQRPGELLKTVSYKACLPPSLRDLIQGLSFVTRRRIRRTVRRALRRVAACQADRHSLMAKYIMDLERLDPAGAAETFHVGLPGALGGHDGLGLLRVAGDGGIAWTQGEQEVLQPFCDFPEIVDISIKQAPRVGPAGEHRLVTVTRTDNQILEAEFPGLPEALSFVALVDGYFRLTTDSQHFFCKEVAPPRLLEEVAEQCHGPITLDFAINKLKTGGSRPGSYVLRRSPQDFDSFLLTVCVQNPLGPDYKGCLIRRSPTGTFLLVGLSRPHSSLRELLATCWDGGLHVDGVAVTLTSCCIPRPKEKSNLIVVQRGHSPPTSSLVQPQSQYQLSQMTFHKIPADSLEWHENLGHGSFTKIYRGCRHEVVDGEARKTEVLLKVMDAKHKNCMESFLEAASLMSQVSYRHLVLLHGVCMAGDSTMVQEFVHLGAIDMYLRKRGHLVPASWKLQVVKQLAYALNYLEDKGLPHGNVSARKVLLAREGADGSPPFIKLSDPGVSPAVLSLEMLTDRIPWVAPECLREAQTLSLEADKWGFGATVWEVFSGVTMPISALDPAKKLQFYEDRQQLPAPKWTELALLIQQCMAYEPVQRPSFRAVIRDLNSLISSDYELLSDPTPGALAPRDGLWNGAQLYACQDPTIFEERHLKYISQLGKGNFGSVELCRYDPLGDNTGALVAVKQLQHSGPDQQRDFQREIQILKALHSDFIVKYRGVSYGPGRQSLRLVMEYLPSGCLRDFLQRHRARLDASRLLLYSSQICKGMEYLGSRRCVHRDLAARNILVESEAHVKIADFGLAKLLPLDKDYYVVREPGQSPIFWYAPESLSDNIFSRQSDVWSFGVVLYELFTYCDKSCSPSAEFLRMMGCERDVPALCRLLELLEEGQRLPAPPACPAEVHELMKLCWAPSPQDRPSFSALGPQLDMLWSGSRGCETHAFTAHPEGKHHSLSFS
Sequence (P23458 whole entry): as the sequence (P23458 whole entry, one chain of several) above
READOUT NAME: IC50 (nM)
A number alone suffices; assume nM.

For this compound ( C=CC(=O)Nc1cccc(CNc2cc(Nc3ccccc3)ncc2C(N)=O)c1 ), measured IC50 is 51
